Values were extracted from ChEMBL document CHEMBL2375244.

ASSAY_SYSTEM: CDK6/cyclin D1 (Homo sapiens, UniProt Q00534)
Sequence (P24385 whole entry): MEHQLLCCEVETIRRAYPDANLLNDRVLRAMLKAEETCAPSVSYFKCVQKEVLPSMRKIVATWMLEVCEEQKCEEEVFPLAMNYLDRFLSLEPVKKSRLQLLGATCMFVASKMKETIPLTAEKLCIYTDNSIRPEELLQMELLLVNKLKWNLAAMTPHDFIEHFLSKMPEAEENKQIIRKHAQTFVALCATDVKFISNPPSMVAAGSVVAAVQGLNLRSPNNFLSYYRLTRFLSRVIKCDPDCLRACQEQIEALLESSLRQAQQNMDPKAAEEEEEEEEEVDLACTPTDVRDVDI
Sequence (Q00534 whole entry): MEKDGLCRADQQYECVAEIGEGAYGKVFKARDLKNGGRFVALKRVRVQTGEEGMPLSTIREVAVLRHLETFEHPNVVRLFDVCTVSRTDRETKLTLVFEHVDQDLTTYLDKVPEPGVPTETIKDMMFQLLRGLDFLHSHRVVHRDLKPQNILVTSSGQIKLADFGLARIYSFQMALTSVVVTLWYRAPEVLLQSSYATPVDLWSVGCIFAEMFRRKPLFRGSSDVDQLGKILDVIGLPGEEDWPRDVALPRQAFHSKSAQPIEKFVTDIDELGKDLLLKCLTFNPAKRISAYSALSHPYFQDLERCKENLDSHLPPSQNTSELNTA
EXPERIMENT_DESCRIPTION: Inhibition of CDK6/Cyclin D1 (unknown origin)-mediated phosphorylation of peptide substrate incubated for 15 mins prior to substrate addition measured after 90 mins by P33-radiolabeled assay
ENDPOINT_NAME: IC50 (nM)

> print(dat)
                           structure.smiles                              assay.system  value.unit  measured
1  Nc1nc(Nc2ccc(S(N)(=O)=O)cc2)sc1C(=O)c1ccccc1[N+](=O)[O-]  CDK6/cyclin D1 (Homo sapiens, UniProt Q00534)          nM       6.6
